Biological target: T1, native membrane bound porcine CD163 on primary porcine alveolar macrophages (porcine, UniProt Q2VL90 47-1115)
T1 construct: also called PAM CD163-WT; pPAM
T1 sequence: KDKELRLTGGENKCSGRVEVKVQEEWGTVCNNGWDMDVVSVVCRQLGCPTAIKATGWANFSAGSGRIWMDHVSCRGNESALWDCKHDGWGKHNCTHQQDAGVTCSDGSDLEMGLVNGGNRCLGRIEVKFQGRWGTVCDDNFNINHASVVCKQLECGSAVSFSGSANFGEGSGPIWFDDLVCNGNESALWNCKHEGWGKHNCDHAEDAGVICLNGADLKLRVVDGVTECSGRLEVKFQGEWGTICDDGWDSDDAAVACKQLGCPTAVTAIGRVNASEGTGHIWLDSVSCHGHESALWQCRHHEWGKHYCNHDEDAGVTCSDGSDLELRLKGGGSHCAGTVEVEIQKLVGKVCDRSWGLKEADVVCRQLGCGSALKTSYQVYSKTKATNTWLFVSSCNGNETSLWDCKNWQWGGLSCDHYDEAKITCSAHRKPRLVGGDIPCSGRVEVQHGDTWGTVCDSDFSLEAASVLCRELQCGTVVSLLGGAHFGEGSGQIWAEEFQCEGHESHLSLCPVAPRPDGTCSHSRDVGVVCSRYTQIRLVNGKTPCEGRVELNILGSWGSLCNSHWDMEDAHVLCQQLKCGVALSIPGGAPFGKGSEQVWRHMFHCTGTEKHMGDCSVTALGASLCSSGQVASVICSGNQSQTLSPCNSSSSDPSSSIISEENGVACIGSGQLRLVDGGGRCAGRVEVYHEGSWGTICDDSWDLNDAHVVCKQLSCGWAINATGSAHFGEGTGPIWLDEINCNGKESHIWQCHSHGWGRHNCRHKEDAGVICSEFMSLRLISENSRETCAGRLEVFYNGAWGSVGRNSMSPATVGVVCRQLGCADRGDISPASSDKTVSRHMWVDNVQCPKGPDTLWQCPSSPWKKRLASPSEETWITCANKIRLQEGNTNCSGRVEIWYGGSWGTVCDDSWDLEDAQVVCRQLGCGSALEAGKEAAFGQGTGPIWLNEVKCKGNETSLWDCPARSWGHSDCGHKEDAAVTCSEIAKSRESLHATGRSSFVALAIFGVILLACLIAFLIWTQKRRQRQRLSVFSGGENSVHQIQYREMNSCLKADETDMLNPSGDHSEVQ
Assay: flow cytometry, PAM CD163-WT, 4C
measured endpoint: % Binding (%)

binder="VHH 015 (2G01) (VHH, Llama single domain antibody; also called 150(#15); VHCDR3 150(#15); not shown: tags: c-myc tag in periplasmic extract (ELISA, FACS); FLAG and His tags in purified VHH (SPR, infection assays)) VHH: QVQLVESGGGLVQAGDTLRLSCTASGRTFSSYSMGWFRQAPGKEREFVAAITWNGYITNYADSVKGRFTISRDNTKNTVFLQMNSLKPEETAVYYCAATTFSTTSPISRTYNYWGPGTQVTVSS" uom=% recorded_measurement=81.5
binder="VHH 020 (3H11) (VHH, Llama single domain antibody; also called 48(#20); VHCDR3 48(#20); not shown: tags: c-myc tag in periplasmic extract (ELISA, FACS); FLAG and His tags in purified VHH (SPR, infection assays)) VHH: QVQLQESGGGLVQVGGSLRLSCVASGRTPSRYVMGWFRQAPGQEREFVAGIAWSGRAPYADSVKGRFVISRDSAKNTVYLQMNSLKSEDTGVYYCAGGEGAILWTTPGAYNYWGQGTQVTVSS" uom=% recorded_measurement=95.5
binder="VHH 002 (1B04) (VHH, Llama single domain antibody; also called 76(#2); VHCDR3 76(#2); not shown: tags: c-myc tag in periplasmic extract (ELISA, FACS); FLAG and His tags in purified VHH (SPR, infection assays)) VHH: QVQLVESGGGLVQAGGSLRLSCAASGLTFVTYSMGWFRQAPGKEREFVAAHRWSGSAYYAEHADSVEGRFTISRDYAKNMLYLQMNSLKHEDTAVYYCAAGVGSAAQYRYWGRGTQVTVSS" uom=% recorded_measurement=31.8
binder="VHH 012 (2C07) (VHH, Llama single domain antibody; also called 41(#12); VHCDR3 41(#12); not shown: tags: c-myc tag in periplasmic extract (ELISA, FACS); FLAG and His tags in purified VHH (SPR, infection assays)) VHH: QLQLVESGGGLVQAGGSLRLSCVASGRTFSRYAMGWFRQAPGKEREFVAAIAWSTGSTYYANSVKGRFAISGDNAKNTVYLQMNSLKPEDTAVYYCAAETRYCSGFGCLDPRTYGSWGQGTQVTVSS" uom=% recorded_measurement=97.9
